- tested-target: T1, HLA-A*24
- T1 construct: Monomers captured on streptavidin plates; also called peptide-receptive MHC molecules; MHC complexes
- test: UV peptide-exchange ELISA (anti-b2m); yield grade ++++ = >75%

[
  {
    "binder": "LYGFFFKI (also called LYGFFFKI) [BTBD16-002]",
    "peptide exchange yield": "> 75%"
  },
  {
    "binder": "VYSNPDLFW (also called VYSNPDLFW) [TRDV3-002]",
    "peptide exchange yield": "> 75%"
  },
  {
    "binder": "AYLKLLPMF (also called AYLKLLPMF) [SLC5A4-001]",
    "peptide exchange yield": "> 75%"
  },
  {
    "binder": "AYLQFLSVL (also called AYLQFLSVL) [GREB-002]",
    "peptide exchange yield": "> 75%"
  },
  {
    "binder": "RWLDGSPVTL (also called RWLDGSPVTL) [CLEC17-005]",
    "peptide exchange yield": "> 75%"
  },
  {
    "binder": "SWHKATFLF (also called SWHKATFLF) [COL24-002]",
    "peptide exchange yield": "> 75%"
  },
  {
    "binder": "IGLSVVHRF (also called IGLSVVHRF) [OR51E2-003]",
    "peptide exchange yield": "> 75%"
  },
  {
    "binder": "NYMDTDNLMF (also called NYMDTDNLMF) [LOC1001246-002]",
    "peptide exchange yield": "> 75%"
  }
]
